- TEST SYSTEM: HRgpA-6H (Porphyromonas gingivalis) (UniProt P28784)
- PROCEDURE SUMMARY: ELISA, coated HRgpA-6H
Mark each entry Y if its OD450 nm sits below 0.8, and N for all others.

Ask | Say whether its OD450 nm is strictly beneath 0.8. Entry: KB001 mouse Fab VH S65T (Fab, V domains shown) VH: EVQLKQSGPGLVAPSQSLSITCTVSGFSLSIYSVHWVRQPPGKGLEWLGMIWGGGSSDYNSALKTRLSISKDNSKSQVFLKMNSLQTDDTAMYYCARNGNFYAMDYWGQGTSVTVSS VL: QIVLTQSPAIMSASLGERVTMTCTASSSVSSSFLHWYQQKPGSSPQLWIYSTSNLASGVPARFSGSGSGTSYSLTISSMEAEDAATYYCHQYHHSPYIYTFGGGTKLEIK
Reply | N

Ask | Say whether its OD450 nm is strictly beneath 0.8. Entry: KB001 mouse Fab VL S53V (Fab, V domains shown) VH: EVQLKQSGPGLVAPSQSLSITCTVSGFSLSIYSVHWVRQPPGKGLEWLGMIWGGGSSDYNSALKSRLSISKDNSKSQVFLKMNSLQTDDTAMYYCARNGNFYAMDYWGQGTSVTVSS VL: QIVLTQSPAIMSASLGERVTMTCTASSSVSSSFLHWYQQKPGSSPQLWIYSTVNLASGVPARFSGSGSGTSYSLTISSMEAEDAATYYCHQYHHSPYIYTFGGGTKLEIK
Reply | Y

Ask | Say whether its OD450 nm is strictly beneath 0.8. Entry: KB001 mouse Fab VH I51Q/M92I (Fab, V domains shown) VH: EVQLKQSGPGLVAPSQSLSITCTVSGFSLSIYSVHWVRQPPGKGLEWLGMQWGGGSSDYNSALKSRLSISKDNSKSQVFLKMNSLQTDDTAIYYCARNGNFYAMDYWGQGTSVTVSS VL: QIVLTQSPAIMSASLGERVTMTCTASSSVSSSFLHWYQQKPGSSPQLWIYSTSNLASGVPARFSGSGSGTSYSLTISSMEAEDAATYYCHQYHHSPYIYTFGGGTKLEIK
Reply | Y

Where do these numbers come from? They come from patent US20240400654A1.
